The entries below come with measured IC50 values attached.
# System: L5178Y
# experiment: The compound was tested for anticancer activity against L5178Y (sensitive) cell lines of mouse leukemia
# Type: functional
# test.parameters: read-out: ID50 (the source's name)
recorded.metric: IC50 (µg/mL)

{"compound": "Nc1nc(=O)n(C2OC(CO)C(I)C2O)cc1F (configuration not stated)", "recorded.metric": "IC50", "value": 0.08}
{"compound": "Cc1ccc(S(=O)(=O)O[C@@H]2[C@@H](O)[C@H](n3cc(F)c(N)nc3=O)O[C@@H]2CO)cc1", "recorded.metric": "IC50", "value": 0.06}
{"compound": "Cc1ccc(S(=O)(=O)O[C@@H]2[C@@H](O)[C@H](n3ccc(N)nc3=O)O[C@@H]2CO)cc1", "recorded.metric": "IC50", "value": 0.08}
{"compound": "Nc1nc(=O)n(C2OC(CO)C(Br)C2O)cc1F (configuration not stated)", "recorded.metric": "IC50", "value": 0.06}
{"compound": "CS(=O)(=O)O[C@@H]1[C@@H](O)[C@H](n2ccc(N)nc2=O)O[C@@H]1CO", "recorded.metric": "IC50", "value": 0.07}
{"compound": "CS(=O)(=O)O[C@@H]1[C@@H](O)[C@H](n2cc(F)c(N)nc2=O)O[C@@H]1CO", "recorded.metric": "IC50", "value": 0.05}
{"compound": "Nc1ccn(C2OC(CO)C(I)C2O)c(=O)n1 (configuration not stated)", "recorded.metric": "IC50", "value": 0.1}
{"compound": "Nc1ccn(C2OC(CO)C(Br)C2O)c(=O)n1 (configuration not stated)", "recorded.metric": "IC50", "value": 0.03}
{"compound": "Nc1ccn([C@@H]2O[C@H](CO)[C@@H](O)[C@@H]2O)c(=O)n1", "recorded.metric": "IC50", "value": 20}
{"compound": "Nc1ccn(C2OC(CO)C(Cl)C2O)c(=O)n1 (configuration not stated)", "recorded.metric": "IC50", "value": 2}
{"compound": "Nc1ccn([C@@H]2O[C@H](CO)[C@H](F)[C@H]2O)c(=O)n1", "recorded.metric": "IC50", "value": 37}
{"compound": "Nc1nc(=O)n(C2OC(CO)C(Cl)C2O)cc1F (configuration not stated)", "recorded.metric": "IC50", "value": 1}
